Biological target: T1, D-19437_(L-Pep-1) (all residues D-amino acids (glycine achiral))
T1 construct: source: chemically synthesized (Fmoc SPPS), folded by dialysis, purified by SEC
T1 chain: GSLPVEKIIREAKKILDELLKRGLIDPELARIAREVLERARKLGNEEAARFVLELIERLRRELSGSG
Assay: ITC; MicroCal PEAQ-ITC, 19 injections; peptide titrated over the binder (L-19437 15 uM, D-Pep-1 150 uM); PBS pH 7.4; One Set of Sites mode
Conditions: both partners purified
Ends that are not written are not given here.
Readout Label: Kd
Give the figure together with its unit, number first.

State the recorded Kd for this entry: DEHELLETAARWFYEIAKRA (also: biotinylated (site not given here), artificial amphipathic alpha-helical peptide) [L-Pep-1]
12.4 nM
